Target: T1, mouse MAdCAM expressed on cells (mouse, UniProt Q61826 22-405)
T1 construct: whole, on cells
T1 sequence (looked up): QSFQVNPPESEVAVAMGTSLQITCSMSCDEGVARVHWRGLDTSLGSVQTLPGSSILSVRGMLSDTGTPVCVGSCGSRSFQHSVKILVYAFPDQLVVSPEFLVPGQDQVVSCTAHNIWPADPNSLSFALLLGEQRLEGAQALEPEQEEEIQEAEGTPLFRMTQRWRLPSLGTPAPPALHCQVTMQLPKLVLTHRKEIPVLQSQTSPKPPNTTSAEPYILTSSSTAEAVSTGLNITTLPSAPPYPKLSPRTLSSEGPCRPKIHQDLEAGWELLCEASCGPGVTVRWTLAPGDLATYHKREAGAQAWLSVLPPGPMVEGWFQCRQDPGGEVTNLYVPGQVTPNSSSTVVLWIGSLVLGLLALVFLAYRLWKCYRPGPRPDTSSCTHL
Assay: cell binding
Readout kind: binding result

binder="MAdCAM Antibody Table 2 Clone 71 (antibody, human IgG1, V domains shown) VH: QVQLVQSGAEVKKPGASVKVSCKASGYTFTSYYMHWVRQAPGQGLEWMGIINPSGGSTSYAQKFQGRVTMTRDTSTSTVYMELSSLRSEDTAVYYCARDSVAGTGGRYYGMDVWGQGTLVTVSS VL: DIQMTQSPSSLSASVGDRVTITCRASQGISNYFAWYQQKPGKAPKLLIYAASSLQGGVPSRFSGSGSGTDFTLTISSLQPEDFATYYCQQSYSLPYTFGQGTKLEIK" reported_value="no binding"
binder="MAdCAM Antibody Table 2 Clone 62 (antibody, human IgG1, V domains shown) VH: QVQLVQSGAEVKKPGASVKVSCKASGYTFTSYDINWVRQAPGQGLEWMGWINPNSGTTGYAQKFQGRVTMTRDTSTSTVYMELSSLRSEDTAVYYCARSPYYYYGMDVWGQGTTVTVSS VL: DIQMTQSPSSLSASVGDRVTITCRASHFISRWVAWYQQKPGKAPKLLIYAASTLQSGVPSRFSGSGSGTDFTLTISSLQPEDFATYYCQQSYSGISFGPGTKVDIK" reported_value="no binding"
binder="MAdCAM Antibody Table 2 Clone 68 (antibody, human IgG1, V domains shown) VH: EVQLLESGGGLVQPGGSLRLSCAASGFTFGDYAMSWVRQAPGKGLEWVAVVSYDGTNKYYADSVKGRFTISRDNSKNTLYLQMNSLRAEDTAVYYCAKDICSSTSCYFDLWGRGTLVTVSS VL: DIQMTQSPSSLSASVGDRVTITCRASQNINNYVNWYQQKPGKAPKLLIYDASNLETGVPSRFSGSGSGTDFTLTISSLQPEDFATYYCQQANSFPPTFGQGTRLEIK" reported_value="no binding"

Reference for the values: patent US20210206856A1
